Provenance of the data: paper PMC7497086

Target: Heterotetrameric CNGA2:A4:B1b channels (Rattus norvegicus, UniProt A0A8I5ZN27+Q00195+Q64359)
Sequence (Q00195 whole entry): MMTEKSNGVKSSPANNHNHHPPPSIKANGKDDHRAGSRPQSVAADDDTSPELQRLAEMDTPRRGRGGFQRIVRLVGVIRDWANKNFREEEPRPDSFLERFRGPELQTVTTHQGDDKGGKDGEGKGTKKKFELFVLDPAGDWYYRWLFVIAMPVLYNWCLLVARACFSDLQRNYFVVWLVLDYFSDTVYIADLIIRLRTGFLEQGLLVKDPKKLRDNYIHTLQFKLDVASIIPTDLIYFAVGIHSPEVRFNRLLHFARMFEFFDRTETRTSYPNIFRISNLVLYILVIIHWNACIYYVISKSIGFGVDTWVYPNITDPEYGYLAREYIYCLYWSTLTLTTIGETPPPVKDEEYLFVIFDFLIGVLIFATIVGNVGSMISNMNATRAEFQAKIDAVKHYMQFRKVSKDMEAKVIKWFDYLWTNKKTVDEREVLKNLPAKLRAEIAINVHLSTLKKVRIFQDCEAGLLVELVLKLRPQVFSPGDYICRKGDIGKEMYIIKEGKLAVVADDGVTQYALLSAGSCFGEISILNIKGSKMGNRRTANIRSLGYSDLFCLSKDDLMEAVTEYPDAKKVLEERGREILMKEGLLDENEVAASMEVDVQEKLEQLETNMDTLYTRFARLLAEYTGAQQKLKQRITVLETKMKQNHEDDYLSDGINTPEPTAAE
Sequence (Q64359 whole entry): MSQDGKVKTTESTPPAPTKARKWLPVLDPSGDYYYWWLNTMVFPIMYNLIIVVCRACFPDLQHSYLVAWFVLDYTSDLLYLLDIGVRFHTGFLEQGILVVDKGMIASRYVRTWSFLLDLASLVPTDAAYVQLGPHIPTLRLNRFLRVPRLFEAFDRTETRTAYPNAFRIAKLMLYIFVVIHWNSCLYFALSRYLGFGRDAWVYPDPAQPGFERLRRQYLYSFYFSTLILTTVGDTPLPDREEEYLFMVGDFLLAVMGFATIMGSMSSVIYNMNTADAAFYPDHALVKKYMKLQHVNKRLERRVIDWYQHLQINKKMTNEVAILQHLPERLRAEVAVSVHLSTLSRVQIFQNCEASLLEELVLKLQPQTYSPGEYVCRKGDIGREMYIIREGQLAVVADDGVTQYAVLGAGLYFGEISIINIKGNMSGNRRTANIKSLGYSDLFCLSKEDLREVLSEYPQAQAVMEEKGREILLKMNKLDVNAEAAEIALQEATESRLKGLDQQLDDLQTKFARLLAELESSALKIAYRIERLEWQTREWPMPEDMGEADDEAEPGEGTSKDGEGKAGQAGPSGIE
Sequence (A0A8I5ZN27 1-858 isoform A0A8I5ZN27-2): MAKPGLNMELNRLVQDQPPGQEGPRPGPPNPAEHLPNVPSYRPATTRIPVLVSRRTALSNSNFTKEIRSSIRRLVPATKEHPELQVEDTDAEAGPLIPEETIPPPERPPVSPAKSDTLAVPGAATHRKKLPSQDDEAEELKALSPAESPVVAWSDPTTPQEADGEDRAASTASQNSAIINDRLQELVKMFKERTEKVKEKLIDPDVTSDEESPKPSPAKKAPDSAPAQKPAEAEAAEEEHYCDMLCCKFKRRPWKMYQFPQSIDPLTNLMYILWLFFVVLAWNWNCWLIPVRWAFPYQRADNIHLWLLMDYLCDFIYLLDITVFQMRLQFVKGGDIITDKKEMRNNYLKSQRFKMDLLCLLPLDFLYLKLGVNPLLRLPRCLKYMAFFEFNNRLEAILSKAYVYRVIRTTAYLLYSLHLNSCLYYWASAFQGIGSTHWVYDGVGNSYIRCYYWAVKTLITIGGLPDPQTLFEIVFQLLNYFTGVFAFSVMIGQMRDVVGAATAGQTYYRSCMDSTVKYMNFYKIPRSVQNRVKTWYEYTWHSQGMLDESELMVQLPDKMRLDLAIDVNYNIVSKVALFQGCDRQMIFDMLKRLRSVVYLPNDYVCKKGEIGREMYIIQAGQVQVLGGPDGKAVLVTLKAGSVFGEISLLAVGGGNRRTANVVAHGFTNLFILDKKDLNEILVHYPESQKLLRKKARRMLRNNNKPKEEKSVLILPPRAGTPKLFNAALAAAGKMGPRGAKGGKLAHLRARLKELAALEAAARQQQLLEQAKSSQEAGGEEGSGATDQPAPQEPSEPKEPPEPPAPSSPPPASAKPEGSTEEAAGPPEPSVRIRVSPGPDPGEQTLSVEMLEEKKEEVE
Test: Patch-clamp activation of heterotetrameric olfactory CNGA2:A4:B1b channels, inside-out patches of Xenopus oocytes
Conditions: inside-out patches, +10 mV; concentration of half maximum activation
pEC50: −log10 of the molar value.
READOUT_KIND: pEC50

| COMPOUND | RESULT_VALUE |
| --- | --- |
| NCCCCCc1ccc(Sc2nc3c(=O)[nH]c(N)nc3n2[C@@H]2O[C@@H]3COP(=O)(O)O[C@H]3[C@H]2O)cc1 | 6.43 |
| Nc1nc2c(ncn2[C@@H]2O[C@@H]3COP(=O)(O)O[C@H]3[C@H]2O)c(=O)[nH]1 [cGMP, reference compound] | 5.87 |
| CC1(C)C2=C3C=C4C5=[N+](CCC4OC3CCN2c2ccc(CC(=O)NCCCCCc3ccc(Sc4nc6c(N)ncnc6n4[C@@H]4O[C@@H]6COP(=O)(O)O[C@H]6[C@H]4O)cc3)cc21)c1ccc(S(=O)(=O)[O-])cc1C5(C)C (stereo partly drawn) | 6.05 |
